- procedure-text: S6 kinase pathway phospho-S6 level changes – cell-based, A549, cytoblot, luminescence, serum-stimulated, primary screen (AID 1158);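 also: serum-stimulated A549 lung adenocarcinoma cells; signal is phosphorylated S6 detected by cytoblot immunostaining with HRP secondary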
- experimental-context: 5 h, higher = more signal
I'd appreciate it if you could supply z-score values for the items below.
Please respond with just the number, no unit label.

Ask: Which z-score value belongs to "C=CC[C@]1(C(=O)N2CCOCC2)COC(c2ccc(OCCCO)cc2)=N1" ?
Result: 0.0334

Ask: Which z-score value belongs to "COc1ccc(CCNC(=O)[C@@]2(Cc3ccccc3I)c3ccccc3C(=O)N(C3CCCCC3)[C@H]2c2ccc(CO)cc2)cc1" ?
Result: 3.35

Ask: Which z-score value belongs to C=CCC(OC(C)=O)[C@@H]1[C@@H](N(Cc2cccc3ccccc23)C(=O)Cc2ccc(F)cc2)c2cc(OCCCO)ccc2N1C(=O)c1ccc2ccccc2c1 (stereo partly specified) ?
Result: 0.336

Ask: Which z-score value belongs to COc1cc2c(cc1O)C(C1CC1)N(C)CC2 (stereo unspecified) ?
Result: -0.0452

Ask: Which z-score value belongs to "N[C@@H](Cc1ccccc1)C(=O)NCc1cn(Cc2ccccc2)nn1" ?
Result: 0.0064

Ask: Which z-score value belongs to "COc1ccc([Si](C)(C)[C@H]2[C@H](CC(=O)N3CCC[C@H]3CO)O[C@@]3(C(=O)N(Cc4ccc(N5CCOC5=O)cc4)c4ccccc43)[C@@H]2C)cc1" ?
Result: 0.0491

Ask: Which z-score value belongs to "COCC(=C=CC[C@H](O)c1ccc(CO)o1)CCO" ?
Result: -0.992

Ask: Which z-score value belongs to CCOc1cc(C(O)C2C=CC3C(=O)NC(=O)C3N2Nc2ccc(Cl)cc2Cl)ccc1O (stereo unspecified) ?
Result: -1.04

Ask: Which z-score value belongs to COC(=O)C1=CC(CCCO)=CC(c2cccs2)N(C)C=C1C(=O)OC (stereo unspecified) ?
Result: -0.481

Ask: Which z-score value belongs to C[C@@H]1NC(=O)[C@@H](Cc2ccccc2)NC(=O)[C@@]23C(=O)N[C@@H](Cc4ccccc4)C2[C@H](C)[C@@]2(C)O[C@H]2C3/C=C/C/C=C\CNC1=O (stereo partly specified) ?
Result: -0.177

Ask: Which z-score value belongs to "C#Cc1cc2ccccc2oc1=O" ?
Result: -0.668

Ask: Which z-score value belongs to "CC(C)N1C(=O)C[C@@](C(=O)O)(c2ccc([N+](=O)[O-])cc2)[C@H]1c1ccc(CO)cc1" ?
Result: 0.126

Ask: Which z-score value belongs to "CCOC(=O)C[C@H]1[C@H](OC(=O)c2ccccc2-c2ccccc2)[C@@H](NC(=O)c2ccc3ccccc3n2)c2cc(OCCCO)ccc2N1C(=O)Cc1ccc(OC)cc1" ?
Result: -0.303

Ask: Which z-score value belongs to "CO[C@H]1O[C@H](CO)[C@@H](OC(=O)CCc2ccccc2)[C@@H]2OC(=O)[C@@H](Cc3ccccc3)C/C=C/C[C@H](Cc3ccccc3)C(=O)O[C@@H]12" ?
Result: 0.658

Ask: Which z-score value belongs to "CCCC[C@@H](O)C1=C(COC)C[C@H]2C(=O)N(Cc3ccccc3)C(=O)[C@H]2[C@H]1CO" ?
Result: 0.304

Ask: Which z-score value belongs to CC(C)(C)OC(=O)CC[C@@]1(C(=O)NCC(O)CO)N=C(c2ccc(OCCCO)cc2)O[C@@H]1c1ccccc1CN=[N+]=[N-] (stereo partly specified) ?
Result: 0.906

Ask: Which z-score value belongs to "CC(=O)NCCCC[C@@H]1NC(=O)[C@@H]2C[C@H](C(=O)NCCCCCN)[C@H](c3ccc(O)cc3)N2C1=O" ?
Result: 0.856

Ask: Which z-score value belongs to CS(=O)(=O)CCOC(=O)C1=CC(c2ccc(CO)cc2)=CC(C2CC2)N(Cc2sc3ccccc3c2Cl)C=C1C(=O)OCCS(C)(=O)=O (stereo unspecified) ?
Result: 0.044

Ask: Which z-score value belongs to "O=C(O)[C@@H]1C[C@@H]2C(=O)N3CCC[C@H]3C(=O)N2[C@@H]1c1ccc(O)cc1" ?
Result: 0.722

Ask: Which z-score value belongs to "C=CC[C@]1(C(=O)N2CCCCC2)N=C(c2ccc(OCCCO)cc2)O[C@H]1c1ccccc1CN=[N+]=[N-]" ?
Result: 0.83

Ask: Which z-score value belongs to "COCCCNC(=O)[C@@]1(Sc2ccc(C)cc2)CC(=O)N(C2Cc3ccccc3C2)[C@@H]1c1ccc(CO)cc1" ?
Result: 2.12

Ask: Which z-score value belongs to "C=C[C@@H](CO)N(Cc1ccc(OC)cc1)S(=O)(=O)c1ccc(Br)cc1" ?
Result: 1.66

Ask: Which z-score value belongs to "CCOC(=O)C1=C[C@@H](C(C)(C)C)N(S(=O)(=O)c2ccc(C)cc2)[C@H]1c1cccc2ccccc12" ?
Result: -0.674

Ask: Which z-score value belongs to "NCCCCCNC(=O)[C@H]1C[C@H]2C(=O)N3CCC[C@H]3C(=O)N2[C@H]1c1cccc(OCCO)c1" ?
Result: -0.413

Ask: Which z-score value belongs to "[N-]=[N+]=NCc1ccccc1C[C@@]1(C(N)=O)N=C(c2ccc(OCCCO)cc2)O[C@@H]1c1ccccc1" ?
Result: -0.494

Ask: Which z-score value belongs to "COc1ccc([Si](C)(C)[C@@H]2[C@@H](CCO)O[C@]3(C(=O)N(Cc4ccccc4)c4ccc(NC(=O)[C@H](C)O)cc43)[C@H]2C)cc1" ?
Result: 0.402

This collection of values is drawn from PubChem BioAssay.
